The reported numbers originate from patent US6747033B2.

System: Blumeria graminis
protocol_text: In vivo fungicidal activity, Wheat powdery mildew (WPM); further: ranges in brackets are in %
measurement_conditions: 50 ppm spray
Overview of recorded WPM disease control rating for various compounds

| compound | WPM disease control rating |
| --- | --- |
| CC(N=c1c(-c2c(F)cccc2F)c(Cl)n(C)c2ncnn12)C(F)(F)F (centres unmarked) [Example 5] | 3 (30-44) |
| CC(N=c1c(-c2ccc(F)cc2F)c(Cl)nc2n(C)cnn12)C(F)(F)F (centres unmarked) [Example 16] | 0 (0) |
| CCCOc1cc(F)c(-c2c(Cl)nc3n(CCC)cnn3c2=NC(C)C(F)(F)F)c(F)c1 (centres unmarked) [Example 9] | 6 (75-89) |
| CCCn1cnn2c(=NC(C)C(F)(F)F)c(-c3c(F)cc(OC)cc3F)c(Cl)nc12 (centres unmarked) [Example 12] | 0 (0) |
| CC(N=c1c(-c2c(F)cccc2F)c(Cl)nc2n(C)cnn12)C(F)(F)F (centres unmarked) [Example 14] | 0 (0) |
| CCCn1cnn2c(=NC(C)C(F)(F)F)c(-c3c(F)cc(F)cc3F)c(Cl)nc12 (centres unmarked) [Example 11] | 0 (0) |

Quick note, WPM disease control rating for CCCn1c(Cl)c(-c2c(F)cc(F)cc2F)c(=NC(C)C(F)(F)F)n2ncnc12 (centres unmarked) [Example 2] landed at 0 (0)

The recorded WPM disease control rating for Cn1c(Cl)c(-c2c(F)cc(F)cc2F)c(=NCC(F)(F)F)n2ncnc12 [Example 8] is 4 (45-59)
